endpoint-name: Kd (µM)
Numeric only. Scale: µM

Param item: `C=CC1=C(C)c2cc3[nH]c(cc4nc(cc5[nH]c(cc1n2)c(C)c5CCC(=O)O)C(CCC(=O)O)=C4C)c(C)c3C=C` ; param system: PefR (GAS PefR) (Streptococcus pyogenes); output Kd: 9
